test system: EPHA1; details: concentration: 1 μM,replicates: in singlicate; n = 1;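 also: KINOMEscan kinase panel screen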
test-readout: %Inh (%)
Field: numeric (%). Do not append units.

{"molecule": "NC(=O)c1cc(-c2ccccc2)cc2c(C3CCNCC3)c[nH]c12", "assayed-system": "EPHA1", "readout-unit": "%", "%Inh": 18}
{"molecule": "C[C@@H](Oc1cc(-c2cnn(C3CCNCC3)c2)cnc1N)c1c(Cl)ccc(F)c1Cl", "assayed-system": "EPHA1", "readout-unit": "%", "%Inh": 93.5}
{"molecule": "O=C(NCCCN1CCOC1=O)c1cnc(NCc2cc(Cl)ccc2Cl)nc1NC1CCCC1", "assayed-system": "EPHA1", "readout-unit": "%", "%Inh": 12}

Specify %Inh for Cl.Cl.NC[C@H](CC1CCCCC1)NC(=O)c1cc(Br)c(-c2ccnc3[nH]ccc23)s1 , system EPHA1.
42

Check EPHA1 data and give %Inh for CCN(CC)CCCCNc1ncc2cc(-c3c(Cl)cccc3Cl)c(NC(=O)NC(C)(C)C)nc2n1 .
99.6

Please indicate recorded %Inh of CCN(CC)CCOc1ccc(Nc2ncc3cc(-c4c(Cl)cccc4Cl)c(=O)n(C)c3n2)cc1 measured with EPHA1.
100

Give the observed %Inh of Cc1occc1-c1nc(N)c(OC[C@@H](N)Cc2c[nH]c3ccccc23)cc1-c1cc2c(C)n[nH]c2cn1 for EPHA1.
16

Please respond with reported %Inh (system EPHA1) for CN(C)CC(O)COc1ccc(Nc2nccc(-c3cnn4nc(N5CCOCC5)ccc34)n2)cc1 (centres unmarked) .
34

---

# %Inh listing for each entry below
test system: MYO3B; conditions: concentration: 1 μM,replicates: in singlicate; n = 1
The answer should read as a number with its unit following.

{"smi": "C[C@@H](Oc1cc(-c2cnn(C3CCNCC3)c2)cnc1N)c1c(Cl)ccc(F)c1Cl", "assayed-system": "MYO3B", "%Inh": "0%"}
{"smi": "CC(C)Nc1cc(-c2ccc3c(N)n[nH]c3c2)nc(N)n1", "assayed-system": "MYO3B", "%Inh": "0%"}

Look up and state reported %Inh for Cc1n[nH]c2ccc(-c3cc(OC[C@@H](N)Cc4ccccc4)cnc3-c3ccoc3)cc12.O=C(O)C(F)(F)F.O=C(O)C(F)(F)F
28%

Return reported %Inh. Input compound: Cc1cc(C(=O)Nc2ccc(Oc3ccc4nc(NC(=O)C5CC5)cn4n3)cc2)nn1-c1ccccc1
21%

Give %Inh for Cl.Cl.NC[C@H](CC1CCCCC1)NC(=O)c1cc(Br)c(-c2ccnc3[nH]ccc23)s1
0%

---

system: TNNI3K; conditions: concentration: 1 μM,replicates: in singlicate; n = 1
%Inh values by entry
Give just the numeric value; % need not be written.

Sample records with %Inh:
{"molecule": "CNC(=O)c1ccccc1Sc1ccc2c(/C=C/c3ccccn3)n[nH]c2c1", "reported": 0}
{"molecule": "Cl.Cl.NC[C@H](CC1CCCCC1)NC(=O)c1cc(Br)c(-c2ccnc3[nH]ccc23)s1 [GSK1581427]", "reported": 0}
{"molecule": "C=CC(=O)Nc1cc2c(Nc3ccc(F)c(Cl)c3)ncnc2cc1OCCCN1CCOCC1 [GW781483]", "reported": 0}
{"molecule": "C[C@@H](Oc1cc(-c2cnn(C3CCNCC3)c2)cnc1N)c1c(Cl)ccc(F)c1Cl", "reported": 88}

Provide measured %Inh value, entry: C[C@@H]1CCN(C(=O)CC#N)C[C@@H]1N(C)c1ncnc2[nH]ccc12
0

---

tested on: MYO3A; conditions: concentration: 1 μM,replicates: in singlicate; n = 1
Measured %Inh, listed per entry for reference.
Just the number please, in %, no unit attached.

Field: example entries. Status: answers known.
{"smi": "CCN(CC)CCOc1ccc(Nc2ncc3cc(-c4c(Cl)cccc4Cl)c(=O)n(C)c3n2)cc1", "reported": 61}
{"smi": "C[C@@H](Oc1cc(-c2cnn(C3CCNCC3)c2)cnc1N)c1c(Cl)ccc(F)c1Cl", "reported": 0}
{"smi": "Cc1cc2cn[nH]c2cc1-c1cccc2c(N)c(C(N)=O)nnc12", "reported": 14}

// below: %Inh requested for another molecule
Dear colleague, please send me the reported %Inh for Cc1occc1-c1nc(N)c(OC[C@@H](N)Cc2c[nH]c3ccccc23)cc1-c1cc2c(C)n[nH]c2cn1 when you can.
69

---

# maps each entry to its %Inh
test system: BMX; conditions: concentration: 1 μM,replicates: in singlicate; n = 1
Expressed in %, but write only the number.

{"molecule": "C[C@@H]1CCN(C(=O)CC#N)C[C@@H]1N(C)c1ncnc2[nH]ccc12", "assayed-system": "BMX", "reported": 0}
{"molecule": "CCN(CC)CCCCNc1ncc2cc(-c3c(Cl)cccc3Cl)c(NC(=O)NC(C)(C)C)nc2n1", "assayed-system": "BMX", "reported": 43}
{"molecule": "Cl.Cl.NC[C@H](CC1CCCCC1)NC(=O)c1cc(Br)c(-c2ccnc3[nH]ccc23)s1 [GSK1581427]", "assayed-system": "BMX", "reported": 0}

Look up %Inh of Cc1occc1-c1nc(N)c(OC[C@@H](N)Cc2c[nH]c3ccccc23)cc1-c1cc2c(C)n[nH]c2cn1 [GSK1660450] and report it.
8

Retrieve %Inh measured for Cc1cc(C(=O)Nc2ccc(Oc3ccc4nc(NC(=O)C5CC5)cn4n3)cc2)nn1-c1ccccc1 and print it.
62

Look up and report measured %Inh for this entry: CNC(=O)c1ccccc1Sc1ccc2c(/C=C/c3ccccn3)n[nH]c2c1
0

Let me know recorded %Inh for Nc1nc(Nc2ccccc2)cc(-c2ccc3c(N)n[nH]c3c2)n1 [GSK2225749] , thanks.
12

---

system: JAK2(JH1domain-catalytic); conditions: concentration: 1 μM,replicates: in singlicate; n = 1
Lab note - cut at 20% for %Inh: met if strictly below, not met if not.

{"molecule": "Cc1occc1-c1nc(N)c(OC[C@@H](N)Cc2c[nH]c3ccccc23)cc1-c1cc2c(C)n[nH]c2cn1 [GSK1660450]", "cat": "met"}
{"molecule": "Cc1n[nH]c2ccc(-c3cc(OC[C@@H](N)Cc4ccccc4)cnc3-c3ccoc3)cc12.O=C(O)C(F)(F)F.O=C(O)C(F)(F)F [GSK507358]", "cat": "met"}

Please let me know if CCN(CC)CCOc1ccc(Nc2ncc3cc(-c4c(Cl)cccc4Cl)c(=O)n(C)c3n2)cc1 [SB-601273] shows %Inh below 20%.
not met

I wonder whether Cl.Oc1cc(-c2nc(-c3ccccc3)[nH]c2-c2ccncc2)ccc1Cl [SB-386023] has %Inh below 20%. Can you tell?
met

Determine whether this molecule shows %Inh lower than 20% (ties excluded): CCN(CC)CCCCNc1ncc2cc(-c3c(Cl)cccc3Cl)c(NC(=O)NC(C)(C)C)nc2n1
not met

Could you please tell me whether %Inh recorded for O=C(NCCNc1ccnc(NCc2ccc(F)cc2)n1)c1cc2ccccc2s1 [GSK1379944] is less than 20%?
met

Field: below-cutoff. Rule: recorded %Inh strictly less than 20%. Subject: O=C(NCCCN1CCOC1=O)c1cnc(NCc2cc(Cl)ccc2Cl)nc1NC1CCCC1
met

Report whether reported %Inh is lower than 20% (strictly) for CN(C)CCOc1ccc(-c2cc(-c3c[nH]nc3-c3ccccn3)ccn2)cc1 [GW835314]
met

---

tested on: CSNK1G2; details: concentration: 1 μM,replicates: in singlicate; n = 1
Recorded %Inh by entry
Only the number, expressed in %, is required.

{"smi": "C=CC(=O)Nc1cc2c(Nc3ccc(F)c(Cl)c3)ncnc2cc1OCCCN1CCOCC1", "%Inh [%]": 1}
{"smi": "Cc1cc(C(=O)Nc2ccc(Oc3ccc4nc(NC(=O)C5CC5)cn4n3)cc2)nn1-c1ccccc1", "%Inh [%]": 0}

Note %Inh for the compound shown: CC(C)Nc1cc(-c2ccc3c(N)n[nH]c3c2)nc(N)n1
2

State its %Inh: Cc1ccc(-n2nc(C(C)(C)C)cc2NC(=O)Nc2ccc(OCCN3CCOCC3)c3ccccc23)cc1
0

Tell me its %Inh given CNC(=O)c1ccccc1Sc1ccc2c(/C=C/c3ccccn3)n[nH]c2c1 as the entry.
18

Quote %Inh reported for CN(C)CCOc1ccc(-c2cc(-c3c[nH]nc3-c3ccccn3)ccn2)cc1 please.
9

Write down %Inh measured for item CCN(CC)CCOc1ccc(Nc2ncc3cc(-c4c(Cl)cccc4Cl)c(=O)n(C)c3n2)cc1
0

# return recorded %Inh for input Cc1occc1-c1nc(N)c(OC[C@@H](N)Cc2c[nH]c3ccccc23)cc1-c1cc2c(C)n[nH]c2cn1
74

---

system: CSNK1E; conditions: concentration: 1 μM,replicates: in singlicate; n = 1
Would you mind labelling by %Inh? At or over 30% is True, under is False.

{"compound": "Cc1n[nH]c2ccc(-c3cc(OC[C@@H](N)Cc4ccccc4)cnc3-c3ccoc3)cc12.O=C(O)C(F)(F)F.O=C(O)C(F)(F)F", "assayed-system": "CSNK1E", "cat": "True"}
{"compound": "O=C(NCCNc1ccnc(NCc2ccc(F)cc2)n1)c1cc2ccccc2s1", "assayed-system": "CSNK1E", "cat": "False"}
{"compound": "CC(C)N1C(=O)Cc2cc(Nc3ncc(C(F)(F)F)c(NCc4cccc(S(C)(=O)=O)c4)n3)ccc21", "assayed-system": "CSNK1E", "cat": "False"}

Does %Inh meet or surpass 30% for CNC(=O)c1ccccc1Sc1ccc2c(/C=C/c3ccccn3)n[nH]c2c1 ?
False

Check if %Inh >= 30% (inclusive). Item: CC(C)Nc1cc(-c2ccc3c(N)n[nH]c3c2)nc(N)n1
False
